biological target: HpFabZ (Helicobacter pylori, UniProt Q5G940); test: SPR (Biacore 3000) binding assay of Emodin to immobilized HpFabZ; conditions: HpFabZ immobilized on CM5 chip, 25°C, read-out: KD, equilibrium dissociation constant determined by SPR
Sequence (Q5G940 entry or part of it): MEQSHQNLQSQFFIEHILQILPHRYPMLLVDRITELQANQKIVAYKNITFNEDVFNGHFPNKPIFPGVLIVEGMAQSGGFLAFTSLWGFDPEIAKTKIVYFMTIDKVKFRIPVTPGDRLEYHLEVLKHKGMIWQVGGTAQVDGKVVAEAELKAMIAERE
quantity kind: Kd
Provide a numeric answer, followed by its unit.

Just so you know, measured Kd for Cc1cc(O)c2c(c1)C(=O)c1cc(O)cc(O)c1C2=O [Emodin, 3-methyl-1,6,8-trihydroxyanthraquinone] came out at 4.59 µM

* * *

molecular target: HpFabZ (Helicobacter pylori, UniProt Q5G940); assay: ITC based assay of Emodin/HpFabZ binding; settings: 25°C, read-out: KD', equilibrium dissociation constant determined by ITC
quantity kind: Kd (µM)
Write down the numeric answer in µM and omit the unit.

// field: Kd; key: Cc1cc(O)c2c(c1)C(=O)c1cc(O)cc(O)c1C2=O [Emodin, 3-methyl-1,6,8-trihydroxyanthraquinone] ; value = 0.45

* * *

quantity kind: Ki (nM)
// return numeric value only (unit: nM, not printed)

Item: Cc1cc(O)c2c(c1)C(=O)c1cc(O)cc(O)c1C2=O [Emodin, 3-methyl-1,6,8-trihydroxyanthraquinone] | System: HpFabZ (Helicobacter pylori, UniProt Q5G940) | Ki: 1900
